# Tested on: MS2 coat protein
# Assay name: apparent KD of MS2 coat protein; designed switch direction (-1 OFF switch, 1 ON switch): -1; higher = weaker reporter binding
# Assay setup: input ligand: microRNA oligo, concentration not stated
Reported apparent KD of MS2 coat protein values follow for various sequences
Field: numeric (nM). Do not append units.

Macromolecule sequence	apparent KD of MS2 coat protein / nM
ACAUGAGGAUCACCCAUGUCCGGCUGGUCUGUUCCGGCUGUCGAGGAUAUAGUCCGGUGUUCGCGCUAGAAGGCGAGGGCUGGA [Aenatbe mod 48] (Eterna round: R96, puzzle: Exclusion NG 3)	29.9

We next turn to a different sequence, shown below.
Could you share which apparent KD of MS2 coat protein value was measured for CACCUGAAGAGAGGAUAUGAUACAUGAGGAUCACCCAUGUAAUAAAUGAGAAUUUCGAAUGUAAUUCAGAAGGCUCGAUAAGGC [Ostricism 100 - Jieux - Exclusion NG 2] (Eterna round: R96, puzzle: Exclusion NG 2) ? 45.6
